assay: in vitro; conditions: human, WI38 normal lung fibroblast cells, Peptide toxicity WI-38 LD/50, human fibroblast cells
No end group written: not given here.
assay.readout: CC50 at 24 h

{"substance": "FAKLLAKALKKAL-NH2 [compound 66]", "CC50 at 24 h": "210 µg/mL"}
{"substance": "FALALKALKKALKKLKKALKKAL-NH2 [compound 2]", "CC50 at 24 h": "66 µg/mL"}
{"substance": "FAKLLAKLAKAKA-NH2 [compound 61]", "CC50 at 24 h": "> 1000 µg/mL"}
{"substance": "FAVGLRAIKRALKKLRRGVRKVAKDL-NH2 [compound 119]", "CC50 at 24 h": "500 µg/mL"}
{"substance": "MPKEKVFLKIEKMGRNIRN-NH2 [compound 71]", "CC50 at 24 h": "> 1000 µg/mL"}

Would you mind telling me what CC50 at 24 h value was observed for MPKWKVFKKIEKVGRNIRNGIVKAGPAIAVLGEAKALG-NH2 [compound 5] ? 950 µg/mL

CC50 at 24 h for FAKALAKLAKKLL-NH2 [compound 58] ? 25 µg/mL

Param item = FAKLLAKLAKKLL-NH2 [compound 25] ; retrieve measured CC50 at 24 h. 5 µg/mL

Please give the measured CC50 at 24 h for this substance: LPKWKVFKKIEKVGRNIRNGIVKAGPAIAVLGEAKALG-NH2 [compound 150] 320 µg/mL

So what's the measured CC50 at 24 h for this one? FALALKALKKLKKALKKAL-NH2 [compound 12] 37 µg/mL

Given FAKKLAKLAKKLLAL-NH2 [compound 20] , state its recorded CC50 at 24 h. 12 µg/mL

----------
Recorded LD50 BMKC by entry
system: BMKC; assay: Anti-cancer assay, MTT, LD50; type: cell-based; details: BMKC cloned melanoma line, 24 hours with peptide
No end group written: not given here.
Give the quantity in µg/mL, number only.

{"substance": "FAKKLAKLAKKALAL-NH2 [P39, FAKKLAKLAKKALAL-NH2]", "study.target": "BMKC", "scale.unit": "µg/mL", "LD50 BMKC": 510}
{"substance": "FALLKALKKAL-NH2 [P171, FALLKALKKAL-NH2]", "study.target": "BMKC", "scale.unit": "µg/mL", "LD50 BMKC": 600}
{"substance": "KWKLFKKKTKLFKKFAKKLAKKL-NH2 [P73]", "study.target": "BMKC", "scale.unit": "µg/mL", "LD50 BMKC": 360}
{"substance": "VAKLLAKLAKKVL-NH2 [P154]", "study.target": "BMKC", "scale.unit": "µg/mL", "LD50 BMKC": 330}
{"substance": "FALKALKKLKKALKKAL-NH2 [P153]", "study.target": "BMKC", "scale.unit": "µg/mL", "LD50 BMKC": 165}
{"substance": "FAKKLKKLAKKL-NH2 [P79]", "study.target": "BMKC", "scale.unit": "µg/mL", "LD50 BMKC": 830}
{"substance": "FAKKLKKLAKLAKKL-NH2 [P46]", "study.target": "BMKC", "scale.unit": "µg/mL", "LD50 BMKC": 150}
{"substance": "FALALKALKKLLKKLKKLAKKAL-NH2 [P24]", "study.target": "BMKC", "scale.unit": "µg/mL", "LD50 BMKC": 85}

// query LD50 BMKC value for entry FAKLLAKALKKFAL-NH2 [P119, FAKLLAKALKKFAL-NH2] 36

# LD50 BMKC lookup, item LKKLAKLALAF-NH2 [P179] 920

Name the recorded LD50 BMKC for FAKLLAKALKKAL-NH2 [P102, FAKLLAKALKKAL-NH2] . 60

----------
Assay: Synergy of Shiva-1 and lysozyme, percent viability;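 further: Lysozyme at ten times the molar concentration of the peptide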
Format: cell-based, Staphylococcus intermedius
Conditions: S. intermedius 19930
Protocol: The percent viability of gram positive S. intermedius 19930, S. intermedius 20034, and S. aureus was determined relative to blank controls.
No end group written: not given here.
# reported viability at 0.1 µM; entries follow
# output: bare number, implied unit %

I would be grateful if you could share the reported viability at 0.1 µM for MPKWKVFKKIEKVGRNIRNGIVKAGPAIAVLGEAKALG-NH2 (C-terminus assumed) [SB-37] . 94.7

Record request: viability at 0.1 µM value, item MPRWRLFRRIDRVGKQIKQGILRAGPAIALVGDARAVG [Shiva-1] 81.8

----------
Tested on: MCF7
Experiment: Anti-cancer assay, MTT, LD50
Format: cell-based
Conditions: MCF7 breast adenocarcinoma line, MTT, 24 hours with peptide
Source text: Numbers are LD50 values (μg/mL).
assay.readout: LD50 MCF7 (µg/mL)
Lab book: enter the figure in µg/mL, no units written.

{"compound": "CC(C)C[C@H](NC(=O)[C@H](C)NC(=O)[C@H](CC(C)C)NC(=O)[C@H](C)NC(=O)[C@H](CC(C)C)NC(=O)[C@H](CCCCN)NC(=O)[C@H](C)NC(=O)[C@H](CC(C)C)NC(=O)[C@H](CCCCN)NC(=O)[C@H](CCCCN)NC(=O)[C@H](C)NC(=O)[C@H](CC(C)C)NC(=O)[C@H](CCCCN)NC(=O)[C@H](C)NC(=O)[C@H](CC(C)C)NC(=O)[C@H](CCCCN)NC(=O)[C@H](CCCCN)NC(=O)[C@H](C)NC(=O)[C@@H](N)C(C)C)C(N)=O [FLAK 25 AM V]", "scale.unit": "µg/mL", "LD50 MCF7": 130}
{"compound": "CC(C)C[C@H](NC(=O)[C@H](C)NC(=O)[C@H](CC(C)C)NC(=O)[C@H](C)NC(=O)[C@H](CC(C)C)NC(=O)[C@H](CCCCN)NC(=O)[C@H](C)NC(=O)[C@H](CC(C)C)NC(=O)[C@H](CCCCN)NC(=O)[C@H](CCCCN)NC(=O)[C@H](C)NC(=O)[C@H](CC(C)C)NC(=O)[C@H](CCCCN)NC(=O)[C@H](C)NC(=O)[C@H](CC(C)C)NC(=O)[C@H](CCCCN)NC(=O)[C@H](CCCCN)NC(=O)[C@H](C)NC(=O)[C@@H](N)Cc1ccccc1)C(N)=O [P36]", "scale.unit": "µg/mL", "LD50 MCF7": 9}
{"compound": "CC(C)C[C@H](NC(=O)[C@H](C)NC(=O)[C@H](CC(C)C)NC(=O)[C@H](CCCCN)NC(=O)[C@H](C)NC(=O)[C@H](CC(C)C)NC(=O)[C@H](CCCCN)NC(=O)[C@H](CCCCN)NC(=O)[C@H](C)NC(=O)[C@H](CC(C)C)NC(=O)[C@H](CCCCN)NC(=O)[C@H](C)NC(=O)[C@H](CC(C)C)NC(=O)[C@H](CCCCN)NC(=O)[C@H](CCCCN)NC(=O)[C@H](C)NC(=O)[C@@H](N)Cc1ccccc1)C(=O)O [P61]", "scale.unit": "µg/mL", "LD50 MCF7": 105}
{"compound": "CC(C)C[C@H](NC(=O)[C@H](C)NC(=O)[C@H](CC(C)C)NC(=O)[C@H](CCCCN)NC(=O)[C@H](C)NC(=O)[C@H](CC(C)C)NC(=O)[C@H](CCCCN)NC(=O)[C@H](CCCCN)NC(=O)[C@H](C)NC(=O)[C@H](CC(C)C)NC(=O)[C@H](CCCCN)NC(=O)[C@H](C)NC(=O)[C@H](CC(C)C)NC(=O)[C@H](CCCCN)NC(=O)[C@H](CCCCN)NC(=O)[C@H](C)NC(=O)[C@@H](N)Cc1ccccc1)C(N)=O [P35]", "scale.unit": "µg/mL", "LD50 MCF7": 9}

Now look at this entry.
Which LD50 MCF7 is reported for this compound? CC[C@H](C)[C@H](N)C(=O)N[C@@H](CC(C)C)C(=O)N1CCC[C@H]1C(=O)N[C@@H](Cc1c[nH]c2ccccc12)C(=O)N[C@@H](CCCCN)C(=O)N[C@@H](Cc1c[nH]c2ccccc12)C(=O)N1CCC[C@H]1C(=O)N[C@@H](Cc1c[nH]c2ccccc12)C(=O)N[C@@H](Cc1c[nH]c2ccccc12)C(=O)N1CCC[C@H]1C(=O)N[C@@H](Cc1c[nH]c2ccccc12)C(=O)N[C@@H](CCCNC(=N)N)C(=O)N[C@@H](CCCNC(=N)N)C(N)=O [P63, reference compound] 64

----------
tested on: Pseudomonas aeruginosa H187; format: cell-based; conditions: Table 8; in µg/mL
No end group written: not given here.
The following substances are listed with their measured MIC P. aeruginosa H187 values.

{"substance": "FAKKLAKKLKKLAKLALAL-OH [P29 (14)]", "study.target": "Pseudomonas aeruginosa H187", "assay.readout": "MIC P. aeruginosa H187", "reported.value": 32}
{"substance": "FAKKLAKLAKKALAL-NH2 [P39 (21)]", "study.target": "Pseudomonas aeruginosa H187", "assay.readout": "MIC P. aeruginosa H187", "reported.value": 32}
{"substance": "LPKWKVFKKIEKVGRNIRNGIVKAGPAIAVLGEAKALG-NH2 [P306 (150)]", "study.target": "Pseudomonas aeruginosa H187", "assay.readout": "MIC P. aeruginosa H187", "reported.value": 16}

Need MIC P. aeruginosa H187, item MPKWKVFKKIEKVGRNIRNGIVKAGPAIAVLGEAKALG-NH2 [P12 (5)] 16

# get_value(readout='MIC P. aeruginosa H187', item= FAKKLAKLAKKLAKAL-NH2 [P109 (73)] ) 64

Given the substance FAKKLLAKALKL-NH2 [P110 (74)] , what is its reported MIC P. aeruginosa H187? 64

Please report the recorded MIC P. aeruginosa H187 for FAKKLAKKLKKLAKKLAK-OH [P71 (47)] . 8

For the substance FAKKLAKKLKKLAKLALAK-NH2 [P41 (23)] , what MIC P. aeruginosa H187 is on record? 8

Request the reported MIC P. aeruginosa H187 associated with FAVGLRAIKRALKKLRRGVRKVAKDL-NH2 [P157 (119)] 8

Where these numbers come from: patent US20050209157A1
